B1: library; a variant is named by its letters at N, in order (parent)
chain: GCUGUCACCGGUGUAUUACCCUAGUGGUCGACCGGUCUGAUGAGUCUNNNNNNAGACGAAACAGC

- Variants of: B1
- protocol description: FACS-Seq fitted mean relative fluorescence mCherry/BFP without ligand (log10 relative fluorescence); ligand: hypoxanthine (xanthine aptamer); higher = higher reporter protein expression
- condition: HEK293T, ligand present: no
reported metric: FACS-Seq fitted mean (log10)

>>> quantitative_result("AGGCGU")
0.521
>>> quantitative_result("GACAGG")
-0.206
>>> quantitative_result("AGCUUC")
-0.188
>>> quantitative_result("GUGCGU")
0.221
>>> quantitative_result("AACUGU")
0.343
>>> quantitative_result("GUGGUG")
0.0578
>>> quantitative_result("GGAUGA")
0.427
>>> quantitative_result("GUAACG")
0.351
>>> quantitative_result("GGACGA")
0.478
>>> quantitative_result("GCGAAA")
0.172
>>> quantitative_result("UGCCAC")
0.327
>>> quantitative_result("CACAUA")
0.738
>>> quantitative_result("GCACGG")
-0.136
>>> quantitative_result("AAGACC")
0.483
>>> quantitative_result("UCUAGC")
0.834
>>> quantitative_result("CCGUGA")
0.311
>>> quantitative_result("AAGUUG")
-0.243
>>> quantitative_result("UUUAGG")
0.0978
>>> quantitative_result("GUCGGA")
-0.358
>>> quantitative_result("UUACCG")
-0.405
>>> quantitative_result("UACGGC")
0.35
>>> quantitative_result("AGUUAC")
0.497
>>> quantitative_result("ACUGAA")
0.038
>>> quantitative_result("CAGGUA")
-0.0109
>>> quantitative_result("GCAACA")
-0.108
>>> quantitative_result("AAGUAA")
0.279
>>> quantitative_result("AUGAGA")
0.392
>>> quantitative_result("GGAUGC")
-0.0215
>>> quantitative_result("CCGUGG")
0.237
>>> quantitative_result("CCGAAG")
-0.0351
>>> quantitative_result("UCAAGA")
0.386
>>> quantitative_result("AGUACG")
0.173
>>> quantitative_result("GACUCG")
0.331
>>> quantitative_result("UAAAUA")
0.398
>>> quantitative_result("UUACAU")
0.352
>>> quantitative_result("UGUACU")
0.71
>>> quantitative_result("AAGAGA")
0.177
>>> quantitative_result("AAAUAG")
0.258
>>> quantitative_result("GAGGCU")
0.751
>>> quantitative_result("CGAGCA")
0.378
>>> quantitative_result("AGAGCG")
0.488
>>> quantitative_result("AAUGAC")
0.585
>>> quantitative_result("ACCAUU")
0.187
>>> quantitative_result("GGGGGC")
0.564
>>> quantitative_result("GGAGUC")
0.764
>>> quantitative_result("AAAUUA")
-0.311
>>> quantitative_result("AGACGA")
0.525
>>> quantitative_result("UCGAUC")
0.537
>>> quantitative_result("AUUUGC")
0.485
>>> quantitative_result("GUUAAC")
0.164
>>> quantitative_result("UCGAAG")
0.5
>>> quantitative_result("GGGGUA")
0.00434
>>> quantitative_result("UAAUUU")
-0.253
>>> quantitative_result("AUCCGA")
0.296

Entry source: the supplement of paper PMC6757056
